# assayed.system: T1, human IL-17A (human, UniProt Q16552 24-155)
# T1 construct: Recombinant; biotinylated in the ELISA; also called hIL-17; hIL17A
# T1 sequence (Q16552 24-155): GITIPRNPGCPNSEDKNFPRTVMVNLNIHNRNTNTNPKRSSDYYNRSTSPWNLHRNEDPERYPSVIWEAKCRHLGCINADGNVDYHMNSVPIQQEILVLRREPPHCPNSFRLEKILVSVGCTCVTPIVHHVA
# test.summary: hIL17A ELISA
value.kind: EC50 (nM)

1) IL17-h5C5.14 (antibody, V domains shown, IgG; constant regions not specified; also called h5C5.14 (VH.1-Vk.3a)) VH: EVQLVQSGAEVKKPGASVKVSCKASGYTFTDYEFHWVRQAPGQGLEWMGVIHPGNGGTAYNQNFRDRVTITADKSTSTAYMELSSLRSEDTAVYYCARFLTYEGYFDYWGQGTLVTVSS VL: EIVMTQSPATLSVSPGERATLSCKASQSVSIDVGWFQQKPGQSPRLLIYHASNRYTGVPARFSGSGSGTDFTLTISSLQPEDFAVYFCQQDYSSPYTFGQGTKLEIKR | 0.03
2) IL17-h10F7.15 (antibody, V domains shown, IgG; constant regions not specified) VH: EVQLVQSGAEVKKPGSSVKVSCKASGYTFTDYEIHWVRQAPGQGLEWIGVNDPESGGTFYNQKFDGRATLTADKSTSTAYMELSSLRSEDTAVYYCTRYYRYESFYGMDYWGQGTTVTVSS VL: EIVLTQSPSSLSASVGDRVTITCSASSSISYIYWFQQKPGKSPKRWIYATFELASGVPSRFSGSGSGTDYTLTISSLQPEDFATYYCHQRSSYPWTFGQGTKLEIKR | 0.14
3) IL17-h5C5.9 (antibody, V domains shown, IgG; constant regions not specified; also called h5C5.9 (VH.1b-Vk.1a)) VH: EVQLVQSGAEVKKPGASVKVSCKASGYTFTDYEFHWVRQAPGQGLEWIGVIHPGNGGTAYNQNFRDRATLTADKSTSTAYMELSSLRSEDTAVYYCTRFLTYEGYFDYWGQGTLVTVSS VL: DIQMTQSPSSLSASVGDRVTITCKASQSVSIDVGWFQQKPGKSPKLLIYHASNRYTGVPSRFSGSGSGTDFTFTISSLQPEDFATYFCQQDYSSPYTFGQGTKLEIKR | 0.03
4) IL17-h5C5.6 (antibody, V domains shown, IgG; constant regions not specified) VH: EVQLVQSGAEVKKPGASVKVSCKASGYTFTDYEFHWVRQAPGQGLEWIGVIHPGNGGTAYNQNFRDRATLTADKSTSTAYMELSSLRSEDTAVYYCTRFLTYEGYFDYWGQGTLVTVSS VL: DIQMTQSPSSLSASVGDRVTITCKASQSVSIDVGWYQQKPGKAPKLLIYHASNRYTGVPSRFSGSGSGTDFTFTISSLQPEDFATYYCQQDYSSPYTFGQGTKLEIKR | 0.11
5) IL17-h5C5.8 (antibody, V domains shown, IgG; constant regions not specified; also called h5C5.8 (VH.1-Vk.1a)) VH: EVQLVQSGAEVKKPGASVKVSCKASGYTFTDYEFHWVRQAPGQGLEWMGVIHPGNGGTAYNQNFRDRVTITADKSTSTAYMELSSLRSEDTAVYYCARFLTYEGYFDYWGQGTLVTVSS VL: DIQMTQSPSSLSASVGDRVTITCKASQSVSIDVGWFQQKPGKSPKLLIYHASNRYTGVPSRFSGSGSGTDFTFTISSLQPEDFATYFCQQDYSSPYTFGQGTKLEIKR | 0.07
6) IL17-h10F7.9 (antibody, V domains shown, IgG; constant regions not specified) VH: QVQLQQSGAELVRPGTSVTLSCKASGYIFTDYEIHWVKQTPVHGLEWIGVNDPESGGTFYNQKFDGKAELTADKSSSTAYMELRSLTSEDSGVYYCTRYYRYESFYGMDYWGQGTSITVSS VL: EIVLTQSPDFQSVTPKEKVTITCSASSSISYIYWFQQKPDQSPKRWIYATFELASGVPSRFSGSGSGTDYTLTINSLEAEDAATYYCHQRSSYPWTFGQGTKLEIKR | 0.04
7) IL17-h5C5.18 (antibody, V domains shown, IgG; constant regions not specified; also called h5C5.18 (VH.1b-Vk.1c)) VH: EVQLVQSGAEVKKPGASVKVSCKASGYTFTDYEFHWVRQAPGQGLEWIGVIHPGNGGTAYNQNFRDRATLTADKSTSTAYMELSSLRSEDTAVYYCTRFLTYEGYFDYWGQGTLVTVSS VL: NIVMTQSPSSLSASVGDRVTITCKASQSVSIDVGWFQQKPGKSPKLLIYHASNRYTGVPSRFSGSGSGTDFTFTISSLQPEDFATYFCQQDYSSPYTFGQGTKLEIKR | 0.03
8) IL17-h5C5.10 (antibody, V domains shown, IgG; constant regions not specified) VH: QVQLQQSGAELVRPGASVKLSCKALGYTFTDYEFHWVKQTPVHGLEWIGVIHPGNGGTAYNQNFRDKATLTADKSSSTAYMELSSLTSEDSGVYYCTRFLTYEGYFDYWGQGTALTVSS VL: EIVMTQSPATLSVSPGERATLSCKASQSVSIDVGWYQQKPGQAPRLLIYHASNRYTGIPARFSGSGSGTDFTLTISSLQPEDFAVYYCQQDYSSPYTFGQGTKLEIKR | 0.05
9) IL17-h10F7.16 (antibody, V domains shown, IgG; constant regions not specified) VH: EVQLVQSGAEVKKPGSSVKVSCKASGYTFTDYEIHWVRQAPGQGLEWMGVNDPESGGTFYNQKFDGRVTITADKSTSTAYMELSSLRSEDTAVYYCARYYRYESFYGMDYWGQGTTVTVSS VL: QIVLTQSPDFQSVTPKEKVTITCSASSSISYIYWFQQKPDQSPKRWIYATFELASGVPSRFSGSGSGTDYTLTINSLEAEDAATYYCHQRSSYPWTFGQGTKLEIKR | 0.09
10) IL17-h10F7.10 (antibody, V domains shown, IgG; constant regions not specified) VH: EVQLVQSGAEVKKPGSSVKVSCKASGYTFTDYEIHWVRQAPGQGLEWMGVNDPESGGTFYNQKFDGRVTITADKSTSTAYMELSSLRSEDTAVYYCARYYRYESFYGMDYWGQGTTVTVSS VL: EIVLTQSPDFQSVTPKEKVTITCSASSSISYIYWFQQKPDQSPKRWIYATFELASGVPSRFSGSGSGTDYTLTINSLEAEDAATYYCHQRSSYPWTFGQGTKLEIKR | 0.04
